Test: in vivo
Type: in vivo, mice
Details: both sexes, white outbred, mouse, in vivo, po; mice, single intragastric administration, day 14
endpoint: LD50

c1cc2cn[nH]c2cc1-c1cn[nH]c1 : 40 mg/kg

----------
Tested on: SH-SY5Y neuroblastoma cells
Assay: Cytotoxicity on tumor cell cultures (resazurin, 48 h)
Format: cell-based
Settings: Homo sapiens
endpoint: IC50 (µM)

c1cc2[nH]ncc2cc1-c1cn[nH]c1 : 15.5
c1cncc(-c2ccc3[nH]ncc3c2)c1 : 14.3
c1cc2cn[nH]c2cc1-c1cn[nH]c1 : 4.2

----------
Assay: Cytotoxic effect in MDCK cell culture (MTS)
Type: cell-based
Settings: dog
endpoint: CC50 at 66 h (µM)

c1ncc(-c2ccc3[nH]ncc3c2)cn1 : 1050
CCOC(=O)C1=C[C@@H](OC(CC)CC)[C@H](NC(C)=O)[C@@H](N)C1 [Oseltamivir, reference compound] : 820
c1cc2cn[nH]c2cc1-c1cn[nH]c1 : 330
c1ncc(-c2ccc3cn[nH]c3c2)cn1 : 1120
c1cncc(-c2ccc3[nH]ncc3c2)c1 : 610
c1cc2[nH]ncc2cc1-c1cn[nH]c1 : 100

----------
# IC50 listing for each entry below
System: influenza virus A/California/7/2009 (H1N1)pdm09
Test: microbe, parasite or virus in culture
Type: cell-based, human influenza virus A
Conditions: H1N1, MDCK
endpoint: IC50 (µM)

c1cncc(-c2ccc3[nH]ncc3c2)c1 [Compound 10, 5-(pyridin-3-yl)-1H-indazole] : 25
c1cc2cn[nH]c2cc1-c1cn[nH]c1 [Compound 8, 6-(1H-pyrazol-4-yl)-1H-indazole] : 6
CCOC(=O)C1=C[C@@H](OC(CC)CC)[C@H](NC(C)=O)[C@@H](N)C1 [Oseltamivir, reference compound] : 0.61

----------
System: SH-SY5Y, K-562, HL-60, GBM5522 cells
Experiment: Cytotoxicity screening, summary over the cancer cell panel
Assay type: cell-based
Conditions: SH-SY5Y, K-562, HL-60, GBM5522; read-out: IC50 range over cancer cell lines
Protocol: The total well volume was 150 μl. Cytotoxicity screening of the synthesized indazole derivatives was performed on the cell line of neuroblastoma SH-SY5Y, lymphoblastic cells K-562, promyeloblastic cells HL-60, low-passage variant of highly differentiated multiform glioblastoma GBM5522 (Table 2).
endpoint: IC50

c1cc2cn[nH]c2cc1-c1cn[nH]c1 [Compound 8, 6-(1H-pyrazol-4-yl)-1H-indazole] : 4 to 14 µM

----------
Tested on: influenza virus A/California/7/2009 (H1N1)pdm09
Assay: microbe, parasite or virus in culture
Assay type: cell-based, human influenza virus A
Conditions: H1N1, MDCK
We begin with a simple list: items and their reported IC50.
endpoint: IC50

c1ncc(-c2ccc3cn[nH]c3c2)cn1 [Compound 11, 6-(pyrimidin-5-yl)-1H-indazole] : > 200 µM
c1ncc(-c2ccc3[nH]ncc3c2)cn1 [Compound 9, 5-(pyrimidin-5-yl)-1H-indazole] : > 100 µM
c1cc2[nH]ncc2cc1-c1cn[nH]c1 [Compound 7, 5-(1H-pyrazol-4-yl)-1H-indazole] : > 20 µM
